- Target: T1, human CCR8 (human, UniProt P51685 1-355)
- T1 construct: Native CCR8 on human PBMC (CCR8+ CD3+ or CCR8+ CD4+ lymphocytes); also called chemokine (C-C motif) receptor 8
- T1 sequence (P51685 whole entry): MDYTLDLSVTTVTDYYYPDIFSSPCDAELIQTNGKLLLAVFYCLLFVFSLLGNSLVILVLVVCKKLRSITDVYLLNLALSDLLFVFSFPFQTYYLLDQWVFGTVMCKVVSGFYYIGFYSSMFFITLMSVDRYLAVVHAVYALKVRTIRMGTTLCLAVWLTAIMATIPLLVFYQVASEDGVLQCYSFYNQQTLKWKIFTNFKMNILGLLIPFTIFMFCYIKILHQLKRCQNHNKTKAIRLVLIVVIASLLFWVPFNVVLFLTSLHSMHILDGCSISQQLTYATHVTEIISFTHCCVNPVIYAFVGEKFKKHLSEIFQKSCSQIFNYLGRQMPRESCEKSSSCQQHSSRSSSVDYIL
- Assay Procedure: flow blocking, PBMC CCR8+CD3+; competitor PE-AB8
Property Measured: % Blocking

Input: Any idea what % Blocking was measured for AB11 (antibody, V domains shown, Hybridoma monoclonal; also called antibody 11; clone 11) VH: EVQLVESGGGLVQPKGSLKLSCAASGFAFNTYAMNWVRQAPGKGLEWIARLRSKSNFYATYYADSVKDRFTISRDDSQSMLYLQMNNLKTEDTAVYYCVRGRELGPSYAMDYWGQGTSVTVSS VL: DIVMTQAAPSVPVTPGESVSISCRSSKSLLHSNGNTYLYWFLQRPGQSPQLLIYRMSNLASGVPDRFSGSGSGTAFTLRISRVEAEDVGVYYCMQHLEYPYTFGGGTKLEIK ?
Output: 17.8%
